Molecular target: T1, Bio-P19 member A2E-19 (chain 2 carries a C-terminal BirA substrate peptide (BSP), enzymatically biotinylated; the BSP letters are not given in the patent and are left out)
T1 construct: also called biotinylated control peptide A2E-19/HLA-A*02:01 monomer
T1 sequence (beta, as listed by the source): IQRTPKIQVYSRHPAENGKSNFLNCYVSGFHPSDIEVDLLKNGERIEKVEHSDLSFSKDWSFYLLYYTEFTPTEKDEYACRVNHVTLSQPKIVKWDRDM
Assay: phage ELISA, streptavidin plate, anti-M13-HRP
assayReadout: binding result

binder	assayReadout	measured
PSA146/HLA-A*02:01-specific scFv phage clone #5 (scFv, V domains shown) VH: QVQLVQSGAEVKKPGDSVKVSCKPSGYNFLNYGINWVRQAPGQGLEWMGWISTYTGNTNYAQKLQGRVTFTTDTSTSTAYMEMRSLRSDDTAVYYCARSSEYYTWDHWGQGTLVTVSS VL: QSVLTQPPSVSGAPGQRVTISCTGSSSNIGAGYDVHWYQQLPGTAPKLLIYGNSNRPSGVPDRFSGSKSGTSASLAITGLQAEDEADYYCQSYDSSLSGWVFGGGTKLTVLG	binding result	no binding
PSA146/HLA-A*02:01-specific scFv phage clone #15 (scFv, V domains shown) VH: QVQLVQSGAEVKKPGSSVKVSCKASGGTFSSYAISWVRQAPGQGLEWMGRIIPILGIANYAQKFQGRVTITADKSTSTAYMELSSLRSEDTAVYYCARVSQPVYGSSTYDIWGQGTLVTVSS VL: QAVLTQPPSASGTPGQRVTISCSGRSSNLGSNSVNWYQQVPGTAPKLLIFDNHQRPSGVPDRFSGSKSGTSASLAISGLRSEDETDYYCAAWDDSLNSVVFGGGTKLTVLG	binding result	no binding
